target: Keap1 Kelch domain (UniProt Q14145); assay: other TR-FRET
Sequence (Q14145 whole entry, the tested form may be a part): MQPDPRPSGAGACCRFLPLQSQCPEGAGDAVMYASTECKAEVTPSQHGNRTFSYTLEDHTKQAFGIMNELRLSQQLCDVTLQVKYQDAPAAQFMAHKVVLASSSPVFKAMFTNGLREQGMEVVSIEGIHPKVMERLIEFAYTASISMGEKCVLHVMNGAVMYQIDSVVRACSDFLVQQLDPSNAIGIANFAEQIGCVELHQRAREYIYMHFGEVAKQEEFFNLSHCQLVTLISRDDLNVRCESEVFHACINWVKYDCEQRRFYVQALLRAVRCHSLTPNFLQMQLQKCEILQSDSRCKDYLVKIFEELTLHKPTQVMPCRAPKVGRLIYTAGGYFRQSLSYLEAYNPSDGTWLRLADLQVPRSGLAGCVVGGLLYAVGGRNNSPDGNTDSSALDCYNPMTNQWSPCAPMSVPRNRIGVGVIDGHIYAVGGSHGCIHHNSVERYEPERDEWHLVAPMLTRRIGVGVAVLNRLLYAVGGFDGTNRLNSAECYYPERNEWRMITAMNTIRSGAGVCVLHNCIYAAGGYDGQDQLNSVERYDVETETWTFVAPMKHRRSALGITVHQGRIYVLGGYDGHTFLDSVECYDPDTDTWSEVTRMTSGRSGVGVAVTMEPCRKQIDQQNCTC
Where no end group is shown, it is not given here. [ ]: non-standard residue; d: D form.
Hi there, I'd appreciate the recorded pIC50 for every entry that follows.
One number for each entry, as −log10 of the molar value.

Some solved entries appear below for comparison.
Ac-DELEPLTGF[dR][dR]RR-NH2 (SMILES CC(=O)N[C@@H](CC(=O)O)C(=O)N[C@@H](CCC(=O)O)C(=O)N[C@@H](CC(C)C)C(=O)N[C@@H](CCC(=O)O)C(=O)N1CCC[C@H]1C(=O)N[C@@H](CC(C)C)C(=O)N[C@H](C(=O)NCC(=O)N[C@@H](Cc1ccccc1)C(=O)N[C@H](CCCNC(=N)N)C(=O)N[C@H](CCCNC(=N)N)C(=O)N[C@@H](CCCNC(=N)N)C(=O)N[C@@H](CCCNC(=N)N)C(N)=O)[C@@H](C)O) [Peptide 1-12]: 7.88
DELEPLTGF[dR][dR]RR (also: polynorbornene brush polymer conjugate, multivalent) [PLP 1-12]: 9.77
RRDELEPLTGFRR (also: polynorbornene brush polymer conjugate, multivalent) [PLP 1-3]: 9.92

The record that follows has no pIC50 shown yet.
// query What value of pIC50 has been recorded for this entry: Ac-DELEPLTGFRR[dR][dR]-NH2 (SMILES CC(=O)N[C@@H](CC(=O)O)C(=O)N[C@@H](CCC(=O)O)C(=O)N[C@@H](CC(C)C)C(=O)N[C@@H](CCC(=O)O)C(=O)N1CCC[C@H]1C(=O)N[C@@H](CC(C)C)C(=O)N[C@H](C(=O)NCC(=O)N[C@@H](Cc1ccccc1)C(=O)N[C@@H](CCCNC(=N)N)C(=O)N[C@@H](CCCNC(=N)N)C(=O)N[C@H](CCCNC(=N)N)C(=O)N[C@H](CCCNC(=N)N)C(N)=O)[C@@H](C)O) [Peptide 1-13]
// result 8.06
